# Lookup of reported TbrCatL 10’ Inhibition keyed by entry
# TARGET_OF_ASSAY: TbrCatL (Trypanosoma brucei rhodesiense)
# Construct: Conor Caffrey (University of California San Diego)
# Sequence (Q95PM0 entry or part of it): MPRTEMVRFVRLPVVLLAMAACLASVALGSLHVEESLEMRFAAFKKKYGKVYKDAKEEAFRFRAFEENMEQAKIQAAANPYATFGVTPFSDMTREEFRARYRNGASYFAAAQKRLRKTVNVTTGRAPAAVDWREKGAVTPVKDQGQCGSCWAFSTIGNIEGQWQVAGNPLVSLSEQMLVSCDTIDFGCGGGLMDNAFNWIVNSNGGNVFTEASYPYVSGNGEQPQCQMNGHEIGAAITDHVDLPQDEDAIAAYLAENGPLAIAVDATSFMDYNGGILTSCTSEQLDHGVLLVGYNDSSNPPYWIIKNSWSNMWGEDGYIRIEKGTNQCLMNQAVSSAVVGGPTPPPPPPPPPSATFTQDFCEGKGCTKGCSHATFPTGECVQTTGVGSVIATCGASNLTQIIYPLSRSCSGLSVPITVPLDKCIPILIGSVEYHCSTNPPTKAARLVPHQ
# PROCEDURE_SUMMARY: TbrCatL enzymatic inhibition assay (cleavage of fluorogenic substrate Z-FR-AMC);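 note: at 5 µM compound concentration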
# Format: biochemical
# CONDITION_INFO: 10’ (pre-incubation time); sheet "Screening results"
Note: unit % is implicit; provide only the numeric part.

Record excerpt, results attached:
// lookup TbrCatL 10’ Inhibition for `CS(=O)(=O)N1CCC(Cn2nc(Cc3cccc4ccccc34)c3c(N)ncnc32)CC1` 3

Recorded TbrCatL 10’ Inhibition for `COc1cccc(CC(=O)N2CCC(n3c(C)nc4ccc(F)cc43)CC2)c1` , please? 18

Reported TbrCatL 10’ Inhibition for `Cc1ccc(-c2nc(CN(Cc3ccccn3)C(C)C)cs2)o1` : what is it? -24

Suppose we examine the molecule CCC(NC(=O)c1ccccc1NC(=O)c1ccc(C)cc1)C(=O)OC (stereo not shown) ; what TbrCatL 10’ Inhibition value has been reported? 3.2

Next:
Fill blank: measured TbrCatL 10’ Inhibition of the molecule `O=C(Nc1c(O)cccc1-c1nc2c(C(=O)O)cccc2o1)c1cc(-c2ccccc2)on1` is ____. -3.7

Fill in the blank: the reported TbrCatL 10’ Inhibition of `O=C(CN1CCOCC1)Nc1ccc2ncnc(Nc3ccc(OCc4cccc(F)c4)c(Cl)c3)c2c1` is ____. 17

Given the molecule `C[C@H]1COc2c(N3CCN(C)CC3)c(F)cc3c(=O)c(C(=O)O)cn1c23` , what is its reported TbrCatL 10’ Inhibition? -1.6

Reported TbrCatL 10’ Inhibition, molecule `COc1ccc(N(CCc2cccc(C)n2)C(=O)C2CCCCC2)cc1` : ____ -10

What does the record list as TbrCatL 10’ Inhibition for CC(C)C(Oc1cccc2ccccc12)C(=O)O (stereo not shown) ? 2

Can you look up the measured TbrCatL 10’ Inhibition of `Cc1ccccc1C(=O)N1NC(=Nc2ccccc2)SC1(C)C` for me? 0.3

Returns the measured TbrCatL 10’ Inhibition for the input molecule. Input: `O=C(Nc1ccccc1)c1ccc(-c2cc3ccncc3cc2OC2CCNCC2)s1` -5
